Hey, just so you know, these numbers are from paper PMC8445934.

This section presents compounds with their documented solubility at 48 h values.
PROTOCOL NOTES: Aqueous and 1-octanol solubility (excess drug, shaking 48 h, UPLC-UV)
Assay type: physicochemical
CONDITION SUMMARY: water, thermodynamic from solid, water, room temperature, 48 h; read-out: aqueous solubilities
VALUE KIND: solubility at 48 h (µg/mL)

COMPOUND | VALUE REPORTED
CC(C)OC(=O)[C@H](C)N[P@](=O)(CO[C@H](C)Cn1cnc2c(N)ncnc21)Oc1ccccc1 [TAF, tenofovir alafenamide] | 5520
CCCCCCCCCCCCCCCCCCCCCCOC(=O)[C@H](Cc1ccccc1)NP(=O)(CO[C@H](C)Cn1cnc2c(N)ncnc21)Oc1ccccc1 (stereo partly drawn) | 2
CCCCCCCCCCCCCCCCCCCCCCOC(=O)[C@H](C)NP(=O)(CO[C@H](C)Cn1cnc2c(N)ncnc21)Oc1ccccc1 (stereo partly drawn) | 7
